Hey, just so you know, these numbers are from patent US8710233B2.

- SYSTEM TESTED: vanilloid receptor 1 (VR1/TRPV1) of the rat species (Rattus norvegicus, UniProt O35433)
- Construct: The spinal column is removed from decapitated rats; from tissue; host or cells: primary cells dissociated from rat dorsal root ganglia
- Sequence (O35433 whole entry): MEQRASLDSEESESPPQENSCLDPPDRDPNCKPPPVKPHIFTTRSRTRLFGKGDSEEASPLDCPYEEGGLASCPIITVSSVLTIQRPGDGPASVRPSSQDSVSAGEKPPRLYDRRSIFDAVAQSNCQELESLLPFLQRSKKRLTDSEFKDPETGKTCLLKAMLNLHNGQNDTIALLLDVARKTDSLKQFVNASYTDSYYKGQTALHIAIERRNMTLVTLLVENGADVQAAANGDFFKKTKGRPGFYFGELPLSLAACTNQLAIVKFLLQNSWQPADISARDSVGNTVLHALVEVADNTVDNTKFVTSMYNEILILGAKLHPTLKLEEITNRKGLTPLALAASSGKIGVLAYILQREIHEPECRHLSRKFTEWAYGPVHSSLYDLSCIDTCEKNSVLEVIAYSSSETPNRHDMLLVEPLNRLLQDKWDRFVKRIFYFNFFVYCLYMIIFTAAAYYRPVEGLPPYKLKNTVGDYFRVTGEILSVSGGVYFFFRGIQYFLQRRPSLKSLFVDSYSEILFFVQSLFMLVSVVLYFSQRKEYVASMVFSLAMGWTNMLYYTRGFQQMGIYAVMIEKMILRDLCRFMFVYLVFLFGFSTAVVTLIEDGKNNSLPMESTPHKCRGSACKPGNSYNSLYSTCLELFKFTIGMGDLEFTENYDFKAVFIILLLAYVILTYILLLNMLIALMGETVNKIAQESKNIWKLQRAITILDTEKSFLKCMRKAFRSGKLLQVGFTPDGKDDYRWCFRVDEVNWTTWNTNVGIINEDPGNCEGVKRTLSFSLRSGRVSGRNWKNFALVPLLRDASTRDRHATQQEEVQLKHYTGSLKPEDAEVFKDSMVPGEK
- MEASUREMENT DESCRIPTION: FLIPR Ca2+ influx assay on rat dorsal root ganglia cells (pharmacological method I)
- Type: cell-based
- MEASUREMENT SETUP: table 4; capsaicin; read-out: Ki (rat) Cap.
Ki less than 900 pM is label 1; Ki greater than or equal to 900 pM is label 0.

Could you please tell me whether Ki recorded for CC(C(=O)NCc1ccc(C(F)(F)F)nc1N1CCC2(CC1)CC(C(C)(C)C)=NO2)c1ccc(NS(C)(=O)=O)c(F)c1 (stereo not shown) [Example 251] is less than 900 pM?
label 0

hey, is Ki for CC(C(=O)NCc1ccc(C(F)(F)F)nc1N1CCC(C)(C)CC1)c1ccc(NS(C)(=O)=O)c(F)c1 (stereo not shown) [Example 210] lower than 900 pM or not?
label 1

I'd appreciate it if you could check whether CCCCCCOc1nc(C(F)(F)F)ccc1CNC(=O)C(C)c1ccc(NS(C)(=O)=O)c(C)c1 (stereo not shown) [Example 257] has Ki smaller than 900 pM.
label 1

====

- SYSTEM TESTED: vanilloid receptor (VR1) (Homo sapiens, UniProt Q8NER1)
- Construct: expressed in transfected cells; host or cells: CHO K1 cells (ECACC), stably transfected
- Sequence (Q8NER1 whole entry): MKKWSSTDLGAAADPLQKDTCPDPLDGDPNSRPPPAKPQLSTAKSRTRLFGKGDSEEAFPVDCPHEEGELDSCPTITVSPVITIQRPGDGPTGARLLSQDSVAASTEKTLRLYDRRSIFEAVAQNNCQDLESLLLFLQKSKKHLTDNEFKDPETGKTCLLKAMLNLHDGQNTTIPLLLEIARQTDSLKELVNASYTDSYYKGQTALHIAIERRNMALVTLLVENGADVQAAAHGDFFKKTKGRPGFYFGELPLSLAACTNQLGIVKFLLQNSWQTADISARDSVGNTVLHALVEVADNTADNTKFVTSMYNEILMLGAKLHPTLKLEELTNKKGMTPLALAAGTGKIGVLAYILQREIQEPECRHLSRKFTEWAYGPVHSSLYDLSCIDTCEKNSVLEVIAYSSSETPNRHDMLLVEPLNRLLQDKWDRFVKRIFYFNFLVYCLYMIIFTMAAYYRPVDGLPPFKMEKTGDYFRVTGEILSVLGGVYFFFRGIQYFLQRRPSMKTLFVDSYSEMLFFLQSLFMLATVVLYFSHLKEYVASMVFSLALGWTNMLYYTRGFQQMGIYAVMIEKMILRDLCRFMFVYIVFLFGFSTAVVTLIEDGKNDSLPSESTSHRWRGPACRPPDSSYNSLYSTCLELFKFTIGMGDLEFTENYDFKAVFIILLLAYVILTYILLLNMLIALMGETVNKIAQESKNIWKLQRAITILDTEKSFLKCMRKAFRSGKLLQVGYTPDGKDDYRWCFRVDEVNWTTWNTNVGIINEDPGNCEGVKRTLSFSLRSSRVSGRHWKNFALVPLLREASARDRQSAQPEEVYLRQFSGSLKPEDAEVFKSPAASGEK
- MEASUREMENT DESCRIPTION: FLIPR Ca2+ influx assay on CHO K1 cells transfected with the VR1 gene (pharmacological method II)
- Format: cell-based
- MEASUREMENT SETUP: table 4; capsaicin; read-out: Ki (human) Cap.
Rule: Ki below 2 nM gives rule met. Equal to or above 2 nM gives rule not met.

Example entries begin here.
>  <COMPOUND>
CC(C(=O)NCc1ccc(C(F)(F)F)nc1OC1CCC(C(C)(C)C)CC1)c1ccc(NS(C)(=O)=O)c(F)c1 (centres unmarked)

>  <LABEL VALUE>
rule not met

$$$$
>  <COMPOUND>
Cc1cc(C(F)(F)F)nc(N2CCC(Cc3ccccc3)CC2)c1CNC(=O)C(C)c1ccc(NS(C)(=O)=O)c(F)c1 (centres unmarked)

>  <LABEL VALUE>
rule not met

$$$$
>  <COMPOUND>
CC(C(=O)NCc1ccc(C(F)(F)F)nc1OC1CCC(C)(C)CC1)c1ccc(NS(C)(=O)=O)c(F)c1 (centres unmarked)

>  <LABEL VALUE>
rule met

$$$$
>  <COMPOUND>
CCCC(CCC)Oc1nc(C(F)(F)F)ccc1CNC(=O)C(C)c1ccc(NS(C)(=O)=O)c(F)c1 (centres unmarked)

>  <LABEL VALUE>
rule met

$$$$
>  <COMPOUND>
Cc1ccc(COc2nc(C(F)(F)F)ccc2CNC(=O)C(C)c2ccc(NS(C)(=O)=O)c(F)c2)cc1 (centres unmarked)

>  <LABEL VALUE>
rule met

$$$$

Turning now to a further record.
Field: below-cutoff. Rule: recorded Ki strictly less than 2 nM. Subject: CCC(C(=O)NCc1ccc(C(F)(F)F)nc1N1CCC(C)CC1)c1ccc(NS(C)(=O)=O)c(F)c1 (centres unmarked)
rule met

====

- SYSTEM TESTED: vanilloid receptor (VR1) (Homo sapiens)
- Construct: expressed in transfected cells; host or cells: CHO K1 cells (ECACC), stably transfected
- MEASUREMENT DESCRIPTION: FLIPR Ca2+ influx assay on CHO K1 cells transfected with the VR1 gene (pharmacological method II)
- Type: cell-based
- MEASUREMENT SETUP: CHO-K1; @ 10 μM; read-out: inhibition in percent, Ki (human) Cap.
MEASURED ENDPOINT: inhibition at 10 µM (%)
Express the result in % but write the number alone.

>  <MOLECULE>
CC(C(=O)NCc1ccc(C(F)(F)F)nc1N1CCN(c2ccncc2)CC1)c1ccc(NS(C)(=O)=O)c(F)c1 (stereo not shown)

>  <UNIT LABEL>
%

>  <OBSERVED MEASUREMENT>
63

$$$$

Bench note: what inhibition at 10 µM did CC(C(=O)NCc1ccc(C(F)(F)F)nc1N1CCC(N2CCCC2)CC1)c1ccc(NS(C)(=O)=O)c(F)c1 (stereo not shown) show?
0.5

Which inhibition at 10 µM is reported for this molecule? CC(C(=O)NCc1ccc(C(F)(F)F)nc1N1CCC(N2CCCCC2)CC1)c1ccc(NS(C)(=O)=O)c(F)c1 (stereo not shown)
84

So what does the record say about inhibition at 10 µM for CC(C(=O)NCc1ccc(C(F)(F)F)nc1)c1ccc(NS(C)(=O)=O)c(F)c1 (stereo not shown) ?
37

====

- SYSTEM TESTED: VR1/TRPV1 receptor (Homo sapiens, UniProt Q8NER1)
- MEASUREMENT DESCRIPTION: IC50 (human) after pH stimulus
- Assay type: cell-based
- MEASUREMENT SETUP: Table 2
MEASURED ENDPOINT: pIC50
To interpret pIC50, take it as minus log10 of a concentration measured in moles per litre.

>  <MOLECULE>
C[C@H](C(=O)NCc1ccc(C(F)(F)F)cc1N1CCCCC1)c1ccc(NS(C)(=O)=O)c(F)c1

>  <OBSERVED MEASUREMENT>
7.30

$$$$
>  <MOLECULE>
C[C@H](C(=O)NCc1ccc(C(F)(F)F)nc1N1CCOCC1)c1ccc(NS(C)(=O)=O)c(F)c1

>  <OBSERVED MEASUREMENT>
5.78

$$$$
>  <MOLECULE>
CC(C(=O)NCc1ccc(C(F)(F)Cl)nc1N1CCCCC1)c1ccc(NS(C)(=O)=O)c(F)c1 (stereo not shown)

>  <OBSERVED MEASUREMENT>
7.65

$$$$

What value of measured pIC50 is listed for CC(C(=O)NCc1ccc(C(F)(F)F)nc1N1CCOCC1)c1ccc(NS(C)(=O)=O)c(F)c1 (stereo not shown) ?
6.77

====

- SYSTEM TESTED: vanilloid receptor (VR1) (Homo sapiens, UniProt Q8NER1)
- Construct: expressed in transfected cells; host or cells: CHO K1 cells (ECACC), stably transfected
- MEASUREMENT DESCRIPTION: FLIPR Ca2+ influx assay on CHO K1 cells transfected with the VR1 gene (pharmacological method II)
- Assay type: cell-based
- MEASUREMENT SETUP: table 4; capsaicin; read-out: Ki (human) Cap.
Dear colleague, classification is by Ki, with ranges listed here: low group: < 0.7 nM; middle group: ≥ 0.7 nM and < 6 nM; high group: ≥ 6 nM

Here are 5 compounds together with their reported answers.
>  <COMPOUND>
CCC1CCC(Oc2nc(C(F)(F)F)ccc2CNC(=O)C(C)c2ccc(NS(C)(=O)=O)c(F)c2)CC1 (stereo not drawn)

>  <LABEL VALUE>
middle group

$$$$
>  <COMPOUND>
CC(C(=O)NCc1ccc(C(F)(F)F)nc1-c1ccc2c(c1)OCCO2)c1ccc(NS(C)(=O)=O)c(F)c1 (stereo not drawn)

>  <LABEL VALUE>
middle group

$$$$
>  <COMPOUND>
CC(C(=O)NCc1ccc(C(F)(F)F)nc1OCC1CCCC1)c1ccc(NS(C)(=O)=O)c(F)c1 (stereo not drawn)

>  <LABEL VALUE>
low group

$$$$
>  <COMPOUND>
CC(C(=O)NCc1ccc(C(F)(F)F)nc1N1CCC(Cc2ccccc2)CC1)c1ccc(NS(C)(=O)=O)c(F)c1 (stereo not drawn)

>  <LABEL VALUE>
low group

$$$$
>  <COMPOUND>
CC(C(=O)NCc1ccc(C(C)(C)C)cc1N1CCCCC1)c1ccc(NS(C)(=O)=O)c(F)c1 (stereo not drawn)

>  <LABEL VALUE>
high group

$$$$

Turning now to a further record.
Tag the class for CC1CCN(c2nc(C(F)(F)F)ccc2CNC(=O)C(C)c2ccc(NS(=O)(=O)C(C)C)c(F)c2)CC1 (stereo not drawn)
high group

====

# key: entry, value: pKi
- SYSTEM TESTED: vanilloid receptor (VR1) (Homo sapiens)
- Construct: expressed in transfected cells; host or cells: CHO K1 cells (ECACC), stably transfected
- MEASUREMENT DESCRIPTION: FLIPR Ca2+ influx assay on CHO K1 cells transfected with the VR1 gene (pharmacological method II)
- Format: cell-based
- MEASUREMENT SETUP: table 4; capsaicin; read-out: Ki (human) Cap.
pKi is defined as minus the log10 of a concentration measured in mol/L.

Examples from the recorded data:
>  <MOLECULE>
CC(C(=O)NCc1ccc(C(F)(F)F)cc1N1CCCCCCC1)c1ccc(NS(C)(=O)=O)c(F)c1 (centres unmarked) [Example 217]

>  <SYSTEM TESTED>
vanilloid receptor (VR1) (Homo sapiens)

>  <OBSERVED MEASUREMENT>
8.55

$$$$
>  <MOLECULE>
CCCN(CCC)c1nc(C(F)(F)F)ccc1CNC(=O)C(C)c1ccc(NS(C)(=O)=O)c(C)c1 (centres unmarked) [Example 331]

>  <SYSTEM TESTED>
vanilloid receptor (VR1) (Homo sapiens)

>  <OBSERVED MEASUREMENT>
9.15

$$$$
>  <MOLECULE>
CC(C(=S)NCc1ccc(C(F)(F)F)nc1N1CCCC1)c1ccc(NS(C)(=O)=O)c(F)c1 (centres unmarked) [Example 129]

>  <SYSTEM TESTED>
vanilloid receptor (VR1) (Homo sapiens)

>  <OBSERVED MEASUREMENT>
8.74

$$$$

Name the reported pKi value associated with the molecule Cc1cc(C(F)(F)F)nc(N2CCC(C)CC2)c1CNC(=O)C(C)c1ccc(NS(C)(=O)=O)c(F)c1 (centres unmarked) [Example 318]
7.76

Could you tell me which pKi is on file for CC(C(=O)NCc1ccc(C(F)(F)F)nc1N1CCC(C(F)(F)F)CC1)c1ccc(NS(C)(=O)=O)c(F)c1 (centres unmarked) [Example 190] ?
9.22

Tell me the measured pKi of CC(C(=O)NCc1ccc(C(F)(F)F)nc1N1CCN(C2CCCCC2)CC1)c1ccc(NS(C)(=O)=O)c(F)c1 (centres unmarked) [Example 260] , please.
7.67

Request the reported pKi associated with CC(C(=S)NCc1ccc(C(F)(F)F)nc1-c1ccc(F)cc1)c1ccc(NS(C)(=O)=O)c(F)c1 (centres unmarked) [Example 130]
8.68

Could you share which pKi value was measured for CC(C(=O)NCc1ccc(C(F)(F)F)nc1N1CCN(c2ccccc2)CC1)c1ccc(NS(C)(=O)=O)c(F)c1 (centres unmarked) [Example 109] ?
9.15

Fill in: pKi of CC(C(=O)NCc1ccc(C(F)(F)F)nc1OCc1ccccc1)c1ccc(NS(C)(=O)=O)c(F)c1 (centres unmarked) [Example 106] is ___
9.30

pKi lookup needed for CCS(=O)(=O)Nc1ccc(C(C)C(=O)NCc2ccc(C(F)(F)F)nc2N2CCC(C)CC2)cc1F (centres unmarked) [Example 287] , thanks.
8.36

Can you share its pKi? I mean this molecule: CC(C(=O)NCc1ccc(C(F)(F)F)nc1N1Cc2ccccc2C1)c1ccc(NS(C)(=O)=O)c(F)c1 (centres unmarked) [Example 188]
8.30

Look up pKi for this molecule: CC(C(=O)NCc1ccc(C(F)(F)F)cc1-c1cccc(F)c1)c1ccc(NS(C)(=O)=O)c(F)c1 (centres unmarked) [Example 323]
8.72

I have this molecule here, CCCCNc1nc(C(F)(F)F)ccc1CNC(=O)C(C)c1ccc(NS(C)(=O)=O)c(F)c1 (centres unmarked) [Example 116] , and I need its recorded pKi.
8.04

Which pKi is listed for CC(C(=O)NCc1ccc(C(C)(C)C)nc1N1CCCC1)c1ccc(NS(C)(=O)=O)c(F)c1 (centres unmarked) [Example 240] ?
8.92
